Assignment: determine reported Replicate_1 for the given compounds.
molecular target: SARS-CoV-2 3CLpro (Severe acute respiratory syndrome coronavirus 2); assay: biochemical; type: biochemical; design: unit not given here; conditions: sheet LOPAC_screen_w_protease; primary screen with protease, replicate 1
API note: the answer field is a bare number with no unit suffix.

Could you tell me which Replicate_1 is on file for O=[N+]([O-])c1cc(O)c(O)c([N+](=O)[O-])c1 ?
3.489

Another compound: N=C(N)NC(=O)c1nc(Cl)c(N2CCCCCC2)nc1N [5-(N,N-hexamethylene)amiloride]
2.2643

Another compound: CCC1(c2ccc(N)cc2)CCC(=O)NC1=O (racemic) [(±)-p-Aminoglutethimide]
1.25

Another compound: Nc1c2c(nc3ccccc13)CCCC2O.O=C(O)/C=C\C(=O)O (stereo not drawn) [Hydroxytacrine maleate]
3.064

Another compound: C#CCn1c(=O)c2c(ncn2C)n(C)c1=O
3.614

Another compound: COc1ccccc1NC(=O)Nc1nc(-c2cccnc2)nc2ccccc12
1.496

Another compound: CC1=C(/C=C/C(C)=C/C=C/C(C)=C/C(=O)Nc2ccc(O)cc2)C(C)(C)CCC1 [Retinoic acid p-hydroxyanilide]
3.365

Another compound: CC(=N)NCCCC[C@H](N)C(=O)O.Cl [L-N6-(1-Iminoethyl)lysine hydrochloride]
3.474

Another compound: CSc1nc(N)c2ncn([C@@H]3O[C@H](COP(=O)([O-])OP(=O)([O-])OP(=O)([O-])[O-])[C@@H](O)[C@H]3O)c2n1.[Na+].[Na+].[Na+].[Na+]
2.88

Another compound: COc1cc2c(cc1C(F)(F)F)N(C(=O)Nc1cc(F)cc(-c3cccnc3)c1)CC2
3.509

Another compound: COc1cc2c(CCNC(C)=O)c[nH]c2cc1O [6-Hydroxymelatonin]
3.2941

Another compound: CC(=O)O[C@H]1C[C@@]2(C)[C@@H](C[C@@H](O)[C@H]3[C@@]4(C)CC[C@@H](O)[C@@H](C)[C@@H]4CC[C@@]32C)/C1=C(\CCC=C(C)C)C(=O)[O-].[Na+] [Fusidic acid sodium]
4.338

Another compound: CCCCCCCCCCC/C=C\C(C)(C)/C=C\CCCC(=O)O
4.092

Another compound: COc1cccc(C(=O)NCCN2CCN(c3ccc(Cl)cc3)CC2)c1
1.008

Another compound: NC/C=C\C(=O)O [cis-4-Aminocrotonic acid]
3.312

Another compound: Cl.O=C(OC1CCN(CCCl)CC1)C(c1ccccc1)c1ccccc1
3.423

Another compound: N#CC(C#N)=Cc1ccc([N+](=O)[O-])c(O)c1
2.273

Another compound: Cc1nc2c(OCc3ccccc3)cccn2c1CC#N
2.6463

Another compound: CC(=O)[C@H]1CC[C@H]2[C@@H]3CC[C@H]4C[C@H](O)CC[C@]4(C)[C@H]3C(=O)C[C@]12C
0.8983

Another compound: CC(=O)N[C@@H](Cc1c[nH]c2ccccc12)C(=O)OCc1cc(C(F)(F)F)cc(C(F)(F)F)c1
2.97

Another compound: CCCN(CC1CC1)c1nc(C)nc(Nc2c(Cl)cc(Cl)cc2Cl)c1Cl
4.203

Another compound: COC[C@H]1OC(=O)c2coc3c2[C@@]1(C)C1=C(C3=O)[C@@H]2CCC(=O)[C@@]2(C)C[C@H]1OC(C)=O
2.1754

Another compound: Br.Cc1o[nH]c(=O)c1CC(N)C(=O)O (racemic) [(±)-AMPA hydrobromide]
3.765

Another compound: N#CC(C#N)=C(N)/C(C#N)=C/c1ccc(O)cc1
2.949

Another compound: CCCC(=O)NCCc1c2n(c3ccc(OC)cc13)CCCc1ccccc1-2
2.886

Another compound: C[N+](C)(C)CCOC(=O)CBr.[Br-] [Bromoacetylcholine bromide]
0.6425

Another compound: CCCCC1(C2CCCC2)Cc2cc(OCC(=O)O)c(Cl)c(Cl)c2C1=O (stereo in doubt) [R(+)-Butylindazone]
3.715

Another compound: COc1ccc2c(c1)c(CC(=O)O)c(C)n2Cc1ccc(F)cc1
3.38

Another compound: CN1C(=O)CC[C@H]1c1cccnc1 [(-)-Cotinine]
2.442

Another compound: Br.CCCN(CCC)[C@@H]1CCc2ccc(O)cc2C1 [R-(+)-7-Hydroxy-DPAT hydrobromide]
2.253

Another compound: CC(N)c1cccc(Cl)c1Cl.Cl (racemic)
4.03

Another compound: Cc1ccccc1N1CCN(S(=O)(=O)CC23CCC(CC2NC(=O)C(N)CCS(C)(=O)=O)C3(C)C)CC1.Cl (stereo not drawn)
2.509

Another compound: CCN1CCC[C@H]1CNC(=O)c1c(OC)ccc(I)c1O [S(-)-IBZM]
3.86

----------
molecular target: SARS-CoV-2 3CLpro (Severe acute respiratory syndrome coronavirus 2, UniProt P0DTD1); experiment: biochemical; format: biochemical; conditions: without Triton X-100; mean ± SD of triplicate; 4 h, 30 °C; read-out: B) EC50 without Triton X-100
Assignment: determine reported pEC50 for the given compounds.
Schema: pEC50 number; meaning minus log10 of the concentration expressed in molar units.

Give the reported pEC50 for CN(N=O)c1ccc(O)c(O)c1 [Me-3,4-dephostatin, reference compound] (system: SARS-CoV-2 3CLpro (Severe acute respiratory syndrome coronavirus 2, UniProt P0DTD1)).
5.74

Another compound: Oc1cc2c(c(Cl)c1O)CCNCC2c1ccccc1 (racemic) [(±)-6-Chloro-PB]
5.99

Another compound: CN(N=O)c1cc(O)ccc1O [Dephostatin, reference compound]
5.64

Another compound: O=C(O)c1cc[c]([Hg][Cl])cc1 [4-Chloromercuribenzoic acid, reference compound]
7.02

Another compound: CN1CCc2cc(O)cc3c2[C@H]1Cc1ccc(O)c(O)c1-3 [R(−)-2-Hydroxyapomorphine]
6.38

Another compound: Oc1ccc(C2CNCCc3c2cc(O)c(O)c3Cl)cc1 (centres unmarked)
5.14

Another compound: N#C/C(=C\c1ccc(O)c(O)c1)C(N)=S [Tyrphostin 47, reference compound]
4.80

----------
Assignment: determine reported inhibition at 5 µM for the given compounds.
biological target: SARS-CoV-2 3CLpro (Severe acute respiratory syndrome coronavirus 2, UniProt P0DTD1); assay: biochemical; type: biochemical; details: 4 h, sheet LOPAC_screen_w_protease; primary screen of LOPAC1280 at 5 µM with protease; mean of the two replicates; read-out: mean
Where a name gives a salt, the structure may show the parent alone.
State the answer as a number, implicitly in %.

Give the reported inhibition at 5 µM for CCCn1c(=O)c2[nH]c(-c3ccc(OCC(=O)Nc4ccc(C#N)cc4)cc3)nc2n(CCC)c1=O [MRS 1754] (system: SARS-CoV-2 3CLpro (Severe acute respiratory syndrome coronavirus 2, UniProt P0DTD1)).
3.78

Another compound: CC1=C(/C=C/C(C)=C/C=C/C(C)=C/C=C/C=C(C)/C=C/C=C(C)/C=C/C2=C(C)C(=O)[C@@H](O)CC2(C)C)C(C)(C)C[C@H](O)C1=O [Astaxanthin]
3.4

Another compound: O=C(O)c1cc(O)c2ccc(Cl)cc2n1 [7-Chlorokynurenic acid]
3.48

Another compound: CCCCCN(CCCCC)C(=O)C(CCC(=O)O)NC(=O)c1ccc(Cl)c(Cl)c1 (centres unmarked) [Lorglumide sodium]
3.65

Another compound: O=C1NC(c2cccc([N+](=O)[O-])c2)=CCN1c1ccccc1O [Icilin]
3.88

Another compound: O=C(O)CC[N+](=O)[O-] [3-Nitropropionic acid]
3.54

Another compound: O=C(CCNNC(=O)c1ccncc1)NCc1ccccc1 [Nialamide]
3.19

Another compound: CN1CCC(=C2c3ccccc3CC(=O)c3sccc32)CC1 [Ketotifen fumarate]
3.16

----------
biological target: SARS-CoV-2 3CLpro (Severe acute respiratory syndrome coronavirus 2, UniProt P0DTD1); experiment: biochemical; assay type: biochemical; conditions: 4 h, sheet LOPAC_screen_w_protease; primary screen with protease, compound at 5 µM; replicate 1; read-out: Replicate_1
Structures can show the parent of a compound that is named as a salt.
Observable: inhibition at 5 µM (%)
State the answer as a number, implicitly in %.

Could you tell me which inhibition at 5 µM is on file for O=c1[nH]c2ccccc2n1C1CCN(CCCC(c2ccc(F)cc2)c2ccc(F)cc2)CC1 [Pimozide] ?
3.25

Another compound: CC(C)N(CCC(C(N)=O)(c1ccccc1)c1ccccn1)C(C)C (centres unmarked) [Disopyramide phosphate]
4.07

Another compound: COC(=O)[C@H]1[C@H]2C[C@H]3c4[nH]c5ccccc5c4CCN3C[C@H]2CC[C@@H]1O [Rauwolscine hydrochloride]
3.55

Another compound: N[C@H]1CON=C1O
0.423

Another compound: O=[N+]([O-])c1cccc2cn[nH]c12
2.19

----------
target: SARS-CoV-2 3CLpro (Severe acute respiratory syndrome coronavirus 2); experiment: biochemical; type: biochemical; settings: 4 h, sheet LOPAC_screen_w_protease; primary screen with protease, 5 µM; mean of two replicates; read-out: mean
Where a name gives a salt, the structure may show the parent alone.
Observable: inhibition at 5 µM (%)
State the answer as a number, implicitly in %.

Could you tell me which inhibition at 5 µM is on file for CC(NCCc1ccc(O)cc1)C(O)c1ccc(O)cc1 (stereo not drawn) [Ritodrine hydrochloride] ?
-0.392

Another compound: O=C(O)c1cc2cc(F)ccc2[nH]1
-0.381

Another compound: O=C(O)CNC(=O)C(CS)Cc1ccccc1 (racemic)
0.357

Another compound: Nc1nc(N)c2nc(-c3ccccc3)c(N)nc2n1
-0.222

Another compound: CN(C)CCCN1c2ccccc2Sc2ccccc21 [Promazine hydrochloride]
-0.303

Another compound: CCCN1C[C@H](CSC)C[C@@H]2c3cccc4[nH]cc(c34)C[C@H]21 [Pergolide methanesulfonate]
0.241

Another compound: Cc1scc2c1N(C(=O)CN1CCN(C)CC1)c1ccccc1NC2=O [Telenzepine dihydrochloride]
0.413

Another compound: S=C(NC1CCCCC1)N1CCC(c2cnc[nH]2)CC1 [Thioperamide maleate]
-0.179

Another compound: CC(C)[N+](C)(CCOC(=O)C1c2ccccc2Oc2ccccc21)C(C)C [Propantheline bromide]
0.204

Another compound: O=C1CCC(c2ccc(-n3ccnc3)cc2)=NN1
-0.683

Another compound: O=C(O)[C@@H]1CCN1
-0.00926

Another compound: CC(=O)O[C@]1(C(C)=O)CC[C@H]2[C@@H]3C=C(Cl)C4=CC(=O)[C@@H]5C[C@@H]5[C@]4(C)[C@H]3CC[C@@]21C [Cyproterone acetate]
-0.427

Another compound: COc1ccc(C2CNC(=O)C2)cc1OC1CCCC1 (stereo not drawn)
-0.575

Another compound: C[C@@H]1O[C@@H]1P(=O)(O)O [Phosphomycin disodium]
-0.258

Another compound: CN1CCN(C2=Nc3ccccc3Oc3ccc(Cl)cc32)CC1 [Loxapine succinate]
-0.686

Another compound: N=C(N)NC(=O)c1nc(Cl)c(N)nc1N [Amiloride hydrochloride]
0.179

Another compound: COC(=O)[C@@H]1[C@H]2C[C@H]3c4[nH]c5ccccc5c4CCN3C[C@@H]2CC[C@@H]1O [Yohimbine hydrochloride]
0.269

Another compound: CCCNC(C)C(=O)Nc1ccccc1C (stereo not drawn) [Prilocaine hydrochloride]
0.116

The measurements presented in this section are drawn from paper PMC7587356.
